target: α2AAR (α2A-adrenergic receptor) (Homo sapiens, UniProt P08913); construct: expressed in transfected cells; host or cells: HEK293; experiment: α2AAR FLIPR assay (agonist activity); type: cell-based; settings: FLIPR, α2AAR cell line hosted in HEK293 cells; read-out: α2A agonist activity (EC50)
Sequence (P08913 whole entry, species assumed): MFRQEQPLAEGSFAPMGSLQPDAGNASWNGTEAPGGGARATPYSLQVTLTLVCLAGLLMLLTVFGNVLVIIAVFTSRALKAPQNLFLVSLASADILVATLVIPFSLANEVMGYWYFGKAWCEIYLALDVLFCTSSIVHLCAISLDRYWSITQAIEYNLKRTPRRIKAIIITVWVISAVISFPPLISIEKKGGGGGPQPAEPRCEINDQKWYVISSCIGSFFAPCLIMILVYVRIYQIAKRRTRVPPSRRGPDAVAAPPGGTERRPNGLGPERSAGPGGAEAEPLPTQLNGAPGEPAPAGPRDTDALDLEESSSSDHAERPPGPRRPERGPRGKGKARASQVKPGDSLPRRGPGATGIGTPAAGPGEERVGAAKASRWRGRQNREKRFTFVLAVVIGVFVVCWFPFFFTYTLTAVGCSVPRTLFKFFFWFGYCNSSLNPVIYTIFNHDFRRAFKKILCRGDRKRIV
MEASURED ENDPOINT: EC50

INSERT INTO assay_data (compound, measured_value) VALUES
  ('CNC(=O)Nc1ccc(C(c2c[nH]cn2)c2cccc(C)c2C)cc1 (stereo not drawn)', '> 1000 nM'),
  ('CNC(=O)NCCOCCOCC(c1c[nH]cn1)c1cccc(C)c1C (single isomer, unassigned) [17-A]', '> 1000 nM'),
  ('Cc1cccc(C(Cc2ccc(C(=O)O)cc2)c2c[nH]cn2)c1C (stereo not drawn) [compound 175]', '10 to 50 nM'),
  ('CCc1cscc1C(c1cccc(NS(C)(=O)=O)c1)c1c[nH]cn1 (stereo not drawn)', '10 to 50 nM'),
  ('CONC(=O)c1cccc(C(c2c[nH]cn2)c2cccc(C)c2C)c1O (stereo not drawn)', '10 to 50 nM'),
  ('Cc1cccc(C(c2cccc(NC(=O)CCC#N)c2)c2c[nH]cn2)c1C (stereo not drawn) [compound 43]', '10 to 50 nM'),
  ('Cc1cccc(C(c2cccc(NC(=O)CC3CCNC3)c2)c2c[nH]cn2)c1C (stereo not drawn)', '50 to 250 nM'),
  ('CNC(=O)c1ccc(CC(c2c[nH]cn2)c2cccc(C)c2C)cc1F (stereo not drawn)', '10 to 50 nM'),
  ('Cc1cccc(C(Cc2ccc3c(c2)CCC(=O)N3)c2c[nH]cn2)c1C (stereo not drawn)', '10 to 50 nM'),
  ('Cc1cccc(C(c2c[nH]cn2)c2cccc(C(=O)NCC3CCOCC3)c2F)c1C (single isomer, unassigned) [124-B]', '10 to 50 nM'),
  ('Cc1cccc(C(c2cccc(C(=O)NC3CCOCC3)c2)c2c[nH]cn2)c1C (single isomer, unassigned) [121-A]', '> 1000 nM'),
  ('Cc1cccc(C(Cc2ccc3c(c2)OCC(=O)N3)c2c[nH]cn2)c1C (stereo not drawn)', '< 10 nM');
